From: paper PMC5540273

Test system: EPHA4
Measurement setup: concentration: 1 μM, replicates: in singlicate; n = 1;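 further: KINOMEscan kinase panel screen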
Experimental endpoint: %Inh (%)
Write the number in % without appending the unit.

**Q:** Can you share its %Inh? I mean this compound: CN(C(=O)c1ccc(-c2cc(-c3c[nH]nc3-c3ccccn3)ccn2)cc1)C1CCOCC1
**A:** 0

**Q:** Can you share its %Inh? I mean this compound: COC(=O)Nc1nc2cc(Oc3ccc(NC(=O)Nc4cc(F)ccc4F)cc3)ccc2[nH]1.Cl
**A:** 37

**Q:** Can you share its %Inh? I mean this compound: NS(=O)(=O)c1cccc(-c2ccc3nccc(-c4cccc(S(N)(=O)=O)c4)c3c2)c1
**A:** 0

**Q:** Can you share its %Inh? I mean this compound: O=C(NCCCN1CCOCC1)c1cccc(Nc2nccc(Nc3ccc(Oc4ccccc4)cc3)n2)c1
**A:** 3

**Q:** Can you share its %Inh? I mean this compound: CN1c2ccc(NCc3ccc(F)cc3)cc2-c2c(cnn2C)S1(=O)=O
**A:** 0

**Q:** Can you share its %Inh? I mean this compound: O=C(Nc1cccc(-c2nn3ncccc3c2-c2ccnc(Nc3cccc(C(F)(F)F)c3)n2)c1)c1c(F)cccc1F
**A:** 8

**Q:** Can you share its %Inh? I mean this compound: Cc1cn2c(=O)cc(N3CCOCC3)nc2n1Cc1cccc(Cl)c1Cl
**A:** 19

**Q:** Can you share its %Inh? I mean this compound: Fc1ccc(-c2ncn(CCCN3CCOCC3)c2-c2ccccn2)cc1
**A:** 8

**Q:** Can you share its %Inh? I mean this compound: c1ccc(-c2cc(-c3c[nH]nc3-c3ccccn3)ccn2)cc1
**A:** 0

**Q:** Can you share its %Inh? I mean this compound: CC(=O)Nc1ccc(COc2ccc(Nc3ccnc4cc(-c5ccccn5)ccc34)cc2)cc1.Cl
**A:** 3

**Q:** Can you share its %Inh? I mean this compound: O=C(NCCNc1ccnc(Nc2ccc(F)cc2)n1)Nc1ccccc1F
**A:** 6

**Q:** Can you share its %Inh? I mean this compound: O=C1NC(=O)C(N2CCc3ccccc32)=C1c1cccc(Cl)c1
**A:** 19

**Q:** Can you share its %Inh? I mean this compound: Nc1nc(-c2ccc3c(N)n[nH]c3c2)cc(N2CCCC2)n1
**A:** 5

**Q:** Can you share its %Inh? I mean this compound: O=c1cc(N2CCOCC2)nc2n(Cc3cccc(F)c3)ccn12
**A:** 10

**Q:** Can you share its %Inh? I mean this compound: COc1ccc(CNC(=O)NC2CCN(c3ccnc(Nc4ccc(OC)cc4)n3)C2)cc1 (centres unmarked)
**A:** 10

**Q:** Can you share its %Inh? I mean this compound: COc1cc2ncn(-c3cc(OCc4sccc4Cl)c(C(N)=O)s3)c2cc1OC
**A:** 0

**Q:** Can you share its %Inh? I mean this compound: CC(C)(C)n1cnc2c(N)ncnc21
**A:** 0

**Q:** Can you share its %Inh? I mean this compound: C[C@@H](Oc1cc(-n2cnc3ccc(NC(=O)NC(C)(C)C)cc32)sc1C(N)=O)c1ccccc1Cl
**A:** 3

**Q:** Can you share its %Inh? I mean this compound: NS(=O)(=O)CCc1cccc(Nc2nccc(-c3c(-c4cccc(NC(=O)c5c(F)cccc5F)c4)nn4ccccc34)n2)c1
**A:** 45

**Q:** Can you share its %Inh? I mean this compound: CN1c2ccc(CNc3ccc(F)cc3)cc2-c2c(cnn2C)S1(=O)=O
**A:** 0

**Q:** Can you share its %Inh? I mean this compound: O=C(Nc1n[nH]c2cc(-c3cccc(F)c3)ccc12)C1CC1
**A:** 24

**Q:** Can you share its %Inh? I mean this compound: O=C1Cc2cc(Nc3nc(NCc4cccc(S(=O)(=O)C(F)(F)F)c4)ncc3C(F)(F)F)ccc2N1
**A:** 0

**Q:** Can you share its %Inh? I mean this compound: COCCNC(=O)c1ccc(-c2cc(C(=O)NC3CC3)cc(F)c2C)cc1
**A:** 21

**Q:** Can you share its %Inh? I mean this compound: Cl.Nc1ncnc2occ(-c3ccc(NC(=O)Nc4cc(C(F)(F)F)ccc4F)cc3)c12
**A:** 93.9

**Q:** Can you share its %Inh? I mean this compound: COc1ccc(Nc2nccc(N3CCC(NC(=O)Nc4cccc(C(C)=O)c4)C3)n2)cc1 (centres unmarked)
**A:** 6

**Q:** Can you share its %Inh? I mean this compound: Cn1cc(-c2ccc3c(c2)CCN3C(=O)Cc2ccccc2Cl)c2c(N)ncnc21
**A:** 62

**Q:** Can you share its %Inh? I mean this compound: Fc1ccc(-c2nn3c(OCC(F)(F)F)cccc3c2-c2ccncc2)cc1
**A:** 3

**Q:** Can you share its %Inh? I mean this compound: Cc1c2ccc(N(C)c3ccnc(Nc4cccc(S(N)(=O)=O)c4)n3)cc2nn1Cc1ccccc1.Cl.Cl
**A:** 21

**Q:** Can you share its %Inh? I mean this compound: CCc1nc(-c2cccc(C)c2)c(-c2ccnc(NCc3ccccc3)c2)s1
**A:** 0

**Q:** Can you share its %Inh? I mean this compound: N#Cc1c(N2CCOCC2)sc(-c2ccn[nH]2)c1-c1ccc(Cl)cc1
**A:** 0

**Q:** Can you share its %Inh? I mean this compound: NS(=O)(=O)c1cccc(-c2ccc3ncc(N4CCOCC4)nc3c2)c1
**A:** 8

**Q:** Can you share its %Inh? I mean this compound: Cc1cccc(Cn2ccn3c(=O)cc(N4CCOCC4)nc23)c1
**A:** 10

**Q:** Can you share its %Inh? I mean this compound: O=c1cc(N2CCOCC2)nc2n(Cc3cccc4ccccc34)ccn12
**A:** 14

**Q:** Can you share its %Inh? I mean this compound: N#Cc1ccc(-c2cc(-c3c[nH]nc3-c3ccccn3)ccn2)cc1
**A:** 2

**Q:** Can you share its %Inh? I mean this compound: Cc1nnc(-c2ccc(C)c(-c3ccc(C(=O)Nc4ccc(NS(C)(=O)=O)cc4)cc3)c2)o1
**A:** 0

###

Tested on: STK36
Measurement setup: concentration: 1 μM, replicates: in singlicate; n = 1
Experimental endpoint: %Inh (%)
Write the number in % without appending the unit.

**Q:** Can you share its %Inh? I mean this compound: Fc1ccc(-c2ncn(CCCN3CCOCC3)c2-c2ccccn2)cc1
**A:** 0

**Q:** Can you share its %Inh? I mean this compound: O=c1cc(N2CCOCC2)nc2n(Cc3cccc4ccccc34)ccn12
**A:** 0

**Q:** Can you share its %Inh? I mean this compound: C[C@@H](Oc1cc(-n2cnc3ccc(NC(=O)NC(C)(C)C)cc32)sc1C(N)=O)c1ccccc1Cl
**A:** 0

###

Test system: PIM1
Measurement setup: concentration: 1 μM, replicates: in singlicate; n = 1
Experimental endpoint: %Inh (%)
Write the number in % without appending the unit.

**Q:** Can you share its %Inh? I mean this compound: Cc1c(Cn2c(C)nn3c(=O)cc(N4CCOC(C)C4)nc23)cccc1C(F)(F)F (centres unmarked) [GSK2344444]
**A:** 11

**Q:** Can you share its %Inh? I mean this compound: O=C1Cc2cc(Nc3nc(NCc4cccc(S(=O)(=O)C(F)(F)F)c4)ncc3C(F)(F)F)ccc2N1
**A:** 100

**Q:** Can you share its %Inh? I mean this compound: Cn1cc(-c2ccc3c(c2)CCN3C(=O)Cc2ccccc2Cl)c2c(N)ncnc21 [GSK2608885]
**A:** 10

**Q:** Can you share its %Inh? I mean this compound: COc1ccc(S(=O)(=O)NC2CCN(c3cc(C)nc(Nc4cccc(C#N)c4)n3)CC2)cc1.O=C(O)C(F)(F)F [GSK1653539]
**A:** 25

**Q:** Can you share its %Inh? I mean this compound: Cc1nnc(-c2ccc3occ(-c4ccc(C(C)O)cc4)c3c2)o1 (centres unmarked)
**A:** 24

**Q:** Can you share its %Inh? I mean this compound: O=c1cc(N2CCOCC2)nc2n(Cc3cccc(Cl)c3Cl)c(C3CC3)nn12 [GSK2358994]
**A:** 0

**Q:** Can you share its %Inh? I mean this compound: COc1ccc(Nc2ncc(C#N)c(Nc3ccccc3C(N)=O)n2)cc1N1CCN(C)CC1.Cl [GSK1558669]
**A:** 97.4

**Q:** Can you share its %Inh? I mean this compound: CN(C(=O)c1ccc(-c2cc(-c3c[nH]nc3-c3ccccn3)ccn2)cc1)C1CCOCC1 [GW810083]
**A:** 0

###

Tested on: ERK8
Construct: gene MAPK15
Measurement setup: concentration: 1 μM, replicates: in singlicate; n = 1
Experimental endpoint: %Inh
# answer = value followed by unit

**Q:** Request - read-out %Inh | tested on ERK8 | compound c1ccc(-c2n[nH]cc2-c2ccnc3ccccc23)nc1
**A:** 0%

**Q:** Request - read-out %Inh | tested on ERK8 | compound O=C1Cc2cc(Nc3nc(NCc4cccc(S(=O)(=O)C(F)(F)F)c4)ncc3C(F)(F)F)ccc2N1
**A:** 0%

**Q:** Request - read-out %Inh | tested on ERK8 | compound COc1ccc(Nc2ncc(C#N)c(Nc3ccccc3C(N)=O)n2)cc1N1CCN(C)CC1.Cl
**A:** 98.9%

**Q:** Request - read-out %Inh | tested on ERK8 | compound Cl.Oc1cccc(Nc2ccnc3cc(-c4ccncc4)ccc23)c1
**A:** 0%

**Q:** Request - read-out %Inh | tested on ERK8 | compound CCc1nc(-c2cccc(C)c2)c(-c2ccnc(NCc3ccccc3)c2)s1
**A:** 0%

**Q:** Request - read-out %Inh | tested on ERK8 | compound Fc1ccc(-c2ncn(CCCN3CCOCC3)c2-c2ccccn2)cc1
**A:** 0%

**Q:** Request - read-out %Inh | tested on ERK8 | compound CC(C)Oc1ccc2c(-c3ccnc(Nc4ccc(N5CCN(C)CC5)cc4)n3)cnn2n1
**A:** 98%

**Q:** Request - read-out %Inh | tested on ERK8 | compound O=c1cc(N2CCOCC2)nc2n(Cc3cccc(F)c3)ccn12
**A:** 6%

**Q:** Request - read-out %Inh | tested on ERK8 | compound NS(=O)(=O)c1cccc(-c2ccc3ncc(N4CCOCC4)nc3c2)c1
**A:** 0%

**Q:** Request - read-out %Inh | tested on ERK8 | compound Cc1ccc(C(=O)NCC(N)=O)cc1-n1c(C)cc(OCc2ccc(F)cc2F)c(Br)c1=O
**A:** 13%

**Q:** Request - read-out %Inh | tested on ERK8 | compound Cc1nnc(-c2ccc3occ(-c4ccc(C(C)O)cc4)c3c2)o1 (stereo not shown)
**A:** 31%

**Q:** Request - read-out %Inh | tested on ERK8 | compound N#Cc1ccc(-c2cc(-c3c[nH]nc3-c3ccccn3)ccn2)cc1
**A:** 10%

**Q:** Request - read-out %Inh | tested on ERK8 | compound COCCNC(=O)c1ccc(-c2cc(C(=O)NC3CC3)cc(F)c2C)cc1
**A:** 29%

**Q:** Request - read-out %Inh | tested on ERK8 | compound c1ccc(-c2cc(-c3c[nH]nc3-c3ccccn3)ccn2)cc1
**A:** 0%

**Q:** Request - read-out %Inh | tested on ERK8 | compound O=C(c1ccc(-c2cc(-c3c[nH]nc3-c3ccccn3)ccn2)cc1)N1CCOCC1
**A:** 5%

**Q:** Request - read-out %Inh | tested on ERK8 | compound Fc1ccc(-c2ncn(CCCN3CCOCC3)c2-c2cccnc2)cc1
**A:** 29%

**Q:** Request - read-out %Inh | tested on ERK8 | compound O=C1NC(=O)C(N2CCc3ccccc32)=C1c1cccc(Cl)c1
**A:** 9%

**Q:** Request - read-out %Inh | tested on ERK8 | compound COc1ccc(Nc2nccc(N3CCC(NC(=O)Nc4cc(C)ccc4C)C3)n2)cc1 (stereo not shown)
**A:** 0%

**Q:** Request - read-out %Inh | tested on ERK8 | compound [2H]C([2H])(c1cccc(C(F)(F)F)c1C)n1ccn2c(=O)nc(N3CCOCC3)cc12
**A:** 0%

**Q:** Request - read-out %Inh | tested on ERK8 | compound N#Cc1c(N2CCOCC2)sc(-c2ccn[nH]2)c1-c1ccc(Cl)cc1
**A:** 5%

**Q:** Request - read-out %Inh | tested on ERK8 | compound Cc1nnc(-c2ccc3ncc(-c4ccc(S(C)=O)cc4)n3c2)o1 (stereo not shown)
**A:** 0%

**Q:** Request - read-out %Inh | tested on ERK8 | compound CSc1ccc(-c2cc3ncnc(SCC(=O)O)c3s2)cc1
**A:** 18%

**Q:** Request - read-out %Inh | tested on ERK8 | compound Cl.Nc1ncnc2occ(-c3ccc(NC(=O)Nc4cc(C(F)(F)F)ccc4F)cc3)c12
**A:** 99.2%

**Q:** Request - read-out %Inh | tested on ERK8 | compound CCc1ccnc(/C=C/c2n[nH]c3cc(Sc4ccccc4C(=O)NC)ccc23)c1
**A:** 0%

**Q:** Request - read-out %Inh | tested on ERK8 | compound COc1ccc(COc2cc(-n3cnc4ccccc43)sc2C(N)=O)cc1
**A:** 0%

**Q:** Request - read-out %Inh | tested on ERK8 | compound Cc1cccc(-c2nc(-c3ccc(S(C)(=O)=O)cc3)sc2-c2ccncc2)c1
**A:** 0%

**Q:** Request - read-out %Inh | tested on ERK8 | compound COc1ccc(CNC(=O)NC2CCN(c3ccnc(Nc4ccc(OC)cc4)n3)C2)cc1 (stereo not shown)
**A:** 0%

**Q:** Request - read-out %Inh | tested on ERK8 | compound Cn1ccc2ncnc(Oc3ccc(NC(=O)Nc4ccncc4)c(Cl)c3)c21
**A:** 1%

**Q:** Request - read-out %Inh | tested on ERK8 | compound CN(C(=O)c1ccc(-c2cc(-c3c[nH]nc3-c3ccccn3)ccn2)cc1)C1CCOCC1
**A:** 1%

**Q:** Request - read-out %Inh | tested on ERK8 | compound CN1c2ccc(NCc3ccc(F)cc3)cc2-c2c(cnn2C)S1(=O)=O
**A:** 22%

**Q:** Request - read-out %Inh | tested on ERK8 | compound Cc1c2ccc(N(C)c3ccnc(Nc4cccc(S(N)(=O)=O)c4)n3)cc2nn1Cc1ccccc1.Cl.Cl
**A:** 3%
